Overview of reported RAM network inhibition across a group of compounds:
Experiment: RAM signaling pathway blockade in yeast – S. cerevisiae, Pdr1DBD-CYC8 efflux-inhibited sensitized strain, primary screen (AID 1298);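 further: 0% = DMSO untreated cells without growth and 100% = 10 µM 1-NA-PP1 full growth; higher means more yeast growth rescued from 5-FOA killing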
Conditions: S. cerevisiae cbk1-as DSE1-URA3 strain, 5-FOA growth OD615, 2 d; at 50 µM; stronger effect = higher value
The source made the active and inactive calls.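 How the source made its calls: active means RAM network inhibition above 8.4% in each of two replicates, 3 SD over the compound average; inconclusive means above 8.4% inhibition in only one replicate; inactive means 8.4% inhibition or less in each replicate.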

Known RAM network inhibition results, listed for orientation:
Request: What does the record list as RAM network inhibition for "O=C(NCc1ccco1)c1cnccn1" ?
Response: -0.25% (inactive)

Request: Please do the same for "Cn1c(NC(=O)c2ccc(C(C)(C)C)cc2)cc(=O)n(C)c1=O" as well.
Response: 1.63% (inactive)

Request: Let us now turn to COc1cccc(C2CC(c3ccccc3)Nc3nc(N)nn32)c1 (stereo unspecified)
Response: 3.16% (inactive)

Request: Ok, now COc1cccc(C2CC(c3ccccc3C)n3nc(N)nc3N2)c1 (stereo unspecified)
Response: 8.21% (inactive)

Request: Another compound to look at: CCCC12CN3CC(CCC)(CN(C1)C3C(O)C(O)C(O)CO)C2=O (stereo unspecified)
Response: 3.47% (inactive)

Request: Same for "O=C(NCCOC(=O)c1ccc(C(=O)OCCNC(=O)c2ccccc2)o1)c1ccccc1"
Response: 6.33% (inactive)

Request: Could you do the same for "CC(C)(C)c1ccc(NC(=O)NCc2ccco2)cc1" , please?
Response: -0.31% (inactive)

Request: Moving on to CC(NC(=O)Cc1ccccc1)c1nc2ccccc2[nH]1 (stereo unspecified)
Response: 3.75% (inactive)

Continuing:
Request: Would you kindly share the measured RAM network inhibition for "Cc1cc2ccccc2n1CCNC(=O)c1cccs1" ?
Response: 3.36% (inactive)

Request: Please answer likewise for COc1ccc(NC(=O)C2=C(C)NC(=O)NC2c2cccc(OC)c2OC)c(OC)c1 (stereo unspecified)
Response: -1.04% (inactive)

Request: Now the compound "CCN1CCN(Cc2ccc(NC(=O)Nc3ccccc3OC)cc2)CC1"
Response: 2.68% (inactive)
